# Lookup of reported log10(IC50) keyed by entry
# Test system: KM12 cell line
# Measurement Protocol: KM12 cell proliferation analysis (CellTiter-Glo)
# Assay type: cell-based
# Condition Info: Homo sapiens, 72 h
Assay Readout: log10(IC50) (log10 of the value in nM)

[[record]]
molecule = "C[C@H]1CNC(=O)c2cnn3ccc(nc23)N[C@H](C)c2cc(F)ccc2O1 [TPX-0005, reference compound]"
assay_readout = "log10(IC50)"
observed_measurement = 0.29

[[record]]
molecule = "C[C@H]1CC(=O)Nc2cnn3ccc(nc23)N2CCC[C@H]2c2cc(F)ccc2O1"
assay_readout = "log10(IC50)"
observed_measurement = -0.19

[[record]]
molecule = "C[C@H]1CC(=O)Nc2cnn3ccc(nc23)N2CCC[C@@H]2c2cc(F)ccc2O1"
assay_readout = "log10(IC50)"
observed_measurement = -0.60

[[record]]
molecule = "C[C@@H]1CCc2ncc(F)cc2[C@H]2CCCN2c2ccn3ncc(c3n2)C(=O)N1 [LOXO-195, reference compound]"
assay_readout = "log10(IC50)"
observed_measurement = 0.44

[[record]]
molecule = "C[C@H]1Nc2ccn3ncc(c3n2)NC(=O)CCOc2ccc(F)cc21"
assay_readout = "log10(IC50)"
observed_measurement = 0.71

[[record]]
molecule = "O=C1CCOc2ccc(F)cc2[C@@H]2CCCN2c2ccn3ncc(c3n2)N1"
assay_readout = "log10(IC50)"
observed_measurement = 2.21

[[record]]
molecule = "C[C@H]1CC(=O)Nc2cnn3ccc(nc23)N[C@H](C)c2cc(F)ccc2O1"
assay_readout = "log10(IC50)"
observed_measurement = 0.20

[[record]]
molecule = "C[C@@H]1Nc2ccn3ncc(c3n2)NC(=O)C[C@H](C)Oc2ccc(F)cc21"
assay_readout = "log10(IC50)"
observed_measurement = 0.68

[[record]]
molecule = "O=C1CCOc2ccc(F)cc2[C@H]2CCCN2c2ccn3ncc(c3n2)N1"
assay_readout = "log10(IC50)"
observed_measurement = -0.26

[[record]]
molecule = "O=C1CCOc2ccc(F)cc2C2CCCN2c2ccn3ncc(c3n2)N1 (racemic)"
assay_readout = "log10(IC50)"
observed_measurement = 0.25

